Test: physchem
Assay type: physicochemical
Details: pH 4.5, Solubility (mg/mL) at Ambient Temperature, 10% Tween 80 pH 4.5-5.0
Measured solubility, listed per entry.

molecule: CCCCCCCCCCCCCCCCNC(=O)CN(CC(N)=O)C(=O)CCCCCNC(=O)C(Cc1c[nH]c2ccccc12)NC(=O)C(CCCNC(=N)N)NC(=O)C(CSSC)NC(=O)C(CCCNC(=N)N)NC(=O)C1CCCN(C(=O)C(NC(=O)C(Cc2c[nH]cn2)NC(=O)C(NC(=O)CNCC(=O)O)C(C)O)C(c2ccccc2)c2ccccc2)C1 (stereo not drawn)
reported: > 100 mg/mL

molecule: CCCCCCCCCCCCCCCCNC(=O)CN(CC(N)=O)C(=O)CCCCCNC(=O)[C@H](Cc1c[nH]c2ccccc12)NC(=O)[C@H](CCCNC(=N)N)NC(=O)[C@H](CSSC)NC(=O)[C@H](CCCNC(=N)N)NC(=O)C1CCN(C(=O)[C@@H](NC(=O)[C@H](Cc2c[nH]cn2)NC(=O)[C@@H](NC(=O)CNCC(=O)O)[C@@H](C)O)C(c2ccccc2)c2ccccc2)CC1
reported: > 50 mg/mL

Okay, next one:
Dear colleague, I am looking for the recorded solubility of the following molecule: `CCCCCCCCCCCCCCCCNC(=O)CN(CC(N)=O)C(=O)CCCCCNC(=O)[C@H](Cc1c[nH]c2ccccc12)NC(=O)[C@H](CCCNC(=N)N)NC(=O)[C@H](CSSC)NC(=O)[C@H](CCCNC(=N)N)NC(=O)[C@@H]1CCCN(C(=O)[C@@H](NC(=O)[C@H](Cc2c[nH]cn2)NC(=O)[C@@H](NC(=O)CNCC(=O)O)[C@@H](C)O)C(c2ccccc2)c2ccccc2)C1` > 50 mg/mL

----------
Test: Stability in sodium acetate buffer pH 6 at two temperatures, reversed-phase HPLC
Type: physicochemical
Settings: sodium acetate buffer pH 6, 18 hours, 40° C.
measurement_label: % Purity of the Compound, 18 Hours 40° C. (%)
Give just the number in %; leave the unit off.

Dear colleague, I am looking for the recorded % Purity of the Compound, 18 Hours 40° C. of the following molecule: CCCCCCCCCCCCCCCCNC(=O)CN(CC(N)=O)C(=O)CCCCCNC(=O)C(Cc1c[nH]c2ccccc12)NC(=O)C(CCCNC(=N)N)NC(=O)C(CSCC)NC(=O)C(CCCNC(=N)N)NC(=O)CC1CCCN1C(=O)C(NC(=O)C(Cc1c[nH]cn1)NC(=O)C(NC(=O)CNCC(=O)O)C(C)O)C(c1ccccc1)c1ccccc1 (stereo not shown) [Compound 4] 97.0

----------
Test: physchem
Format: physicochemical
Conditions: pH 4.5, Solubility (mg/mL) at Ambient Temperature, 10% Tween 80 pH 4.5-5.0
Measured solubility, listed per entry.

Consider the worked cases shown below.
molecule: CCCCCCCCCCCCCCCCNC(=O)CN(CC(N)=O)C(=O)CCCCCNC(=O)C(Cc1c[nH]c2ccccc12)NC(=O)C(CCCNC(=N)N)NC(=O)C(CSSC)NC(=O)C(CCCNC(=N)N)NC(=O)CC1CCCN1C(=O)C(NC(=O)C(Cc1c[nH]cn1)NC(=O)C(NC(=O)CNCC(=O)O)C(C)O)C(c1ccccc1)c1ccccc1 (stereo not drawn)
reported: 50 to 100 mg/mL
//
molecule: CCCCCCCCCCCCCCCCNC(=O)CN(CC(N)=O)C(=O)CCCCCNC(=O)[C@H](Cc1c[nH]c2ccccc12)NC(=O)[C@H](CCCNC(=N)N)NC(=O)[C@H](CSSC)NC(=O)[C@H](CCCNC(=N)N)NC(=O)CCNC(=O)[C@@H](NC(=O)[C@H](Cc1c[nH]cn1)NC(=O)[C@@H](NC(=O)CNCC(=O)O)[C@@H](C)O)C(c1ccccc1)c1ccccc1
reported: < 10 mg/mL

Okay, next one:
Dear colleague, I am looking for the recorded solubility of the following molecule: `CCCCCCCCCCCCCCCCNC(=O)CN(CC(N)=O)C(=O)CCCCCNC(=O)[C@H](Cc1c[nH]c2ccccc12)NC(=O)[C@H](CCCNC(=N)N)NC(=O)[C@H](CSSC)NC(=O)[C@H](CCCNC(=N)N)NC(=O)C[C@@H]1CCCN1C(=O)[C@@H](NC(=O)[C@H](Cc1c[nH]cn1)NC(=O)[C@@H](NC(=O)CN(CC(=O)O)C(=O)CNC(C)=O)[C@@H](C)O)C(c1ccccc1)c1ccccc1` 25 to 50 mg/mL

----------
Experiment: Stability in sodium acetate buffer pH 6 at two temperatures, reversed-phase HPLC
Type: physicochemical
Details: sodium acetate buffer pH 6, 18 h, 40° C.
Measured Change in Main Peak % Area After 18 H Incubation, 40° C., listed per entry.
Give just the number in %; leave the unit off.

Consider the worked cases shown below.
molecule: CCCCCCCCCCCCCCCCNC(=O)CN(CC(N)=O)C(=O)CCCCCNC(=O)C(Cc1c[nH]c2ccccc12)NC(=O)C(CCCNC(=N)N)NC(=O)C(CSCC)NC(=O)C(CCCNC(=N)N)NC(=O)CC1CCCN1C(=O)C(NC(=O)C(Cc1c[nH]cn1)NC(=O)C(NC(=O)CNCC(=O)O)C(C)O)C(c1ccccc1)c1ccccc1 (stereo not shown)
reported: 0.3
//
molecule: CCCCCCCCCCCCCCCCNC(=O)CN(CC(N)=O)C(=O)CCCCCNC(=O)C(Cc1c[nH]c2ccccc12)NC(=O)C(CCCNC(=N)N)NC(=O)C(CSSC)NC(=O)C(CCCNC(=N)N)NC(=O)CC1CCCN1C(=O)C(NC(=O)C(Cc1c[nH]cn1)NC(=O)C(NC(=O)CNCC(=O)O)C(C)O)C(c1ccccc1)c1ccccc1 (stereo not shown)
reported: −0.1

Okay, next one:
Dear colleague, I am looking for the recorded Change in Main Peak % Area After 18 H Incubation, 40° C. of the following molecule: CCCCCCCCCCCCCCCCNC(=O)CN(CC(N)=O)C(=O)CCCCCNC(=O)C(Cc1c[nH]c2ccccc12)NC(=O)C(CCCNC(=N)N)NC(=O)C(CSC(C)=O)NC(=O)C(CCCNC(=N)N)NC(=O)CC1CCCN1C(=O)C(NC(=O)C(Cc1c[nH]cn1)NC(=O)C(NC(=O)CNCC(=O)O)C(C)O)C(c1ccccc1)c1ccccc1 (stereo not shown) −30

----------
Assay: Stability in sodium acetate buffer pH 6 at two temperatures, reversed-phase HPLC
Assay type: physicochemical
Conditions: sodium acetate buffer pH 6, initial
Measured % Purity of the Compound, Initial, listed per entry.
Give just the number in %; leave the unit off.

compound: CCCCCCCCCCCCCCCCNC(=O)CN(CC(N)=O)C(=O)CCCCCNC(=O)C(Cc1c[nH]c2ccccc12)NC(=O)C(CCCNC(=N)N)NC(=O)C(CSCC)NC(=O)C(CCCNC(=N)N)NC(=O)CC1CCCN1C(=O)C(NC(=O)C(Cc1c[nH]cn1)NC(=O)C(NC(=O)CNCC(=O)O)C(C)O)C(c1ccccc1)c1ccccc1 (stereo not shown) [Compound 4]
% Purity of the Compound, Initial [%]: 96.7
//
compound: CCCCCCCCCCCCCCCCNC(=O)CN(CC(N)=O)C(=O)CCCCCNC(=O)C(Cc1c[nH]c2ccccc12)NC(=O)C(CCCNC(=N)N)NC(=O)C(CSSC)NC(=O)C(CCCNC(=N)N)NC(=O)CC1CCCN1C(=O)C(NC(=O)C(Cc1c[nH]cn1)NC(=O)C(NC(=O)CNCC(=O)O)C(C)O)C(c1ccccc1)c1ccccc1 (stereo not shown) [Compound 2]
% Purity of the Compound, Initial [%]: 99.5
//
compound: CCCCCCCCCCCCCCCCNC(=O)CN(CC(N)=O)C(=O)CCCCCNC(=O)C(Cc1c[nH]c2ccccc12)NC(=O)C(CCCNC(=N)N)NC(=O)C(CS)NC(=O)C(CCCNC(=N)N)NC(=O)CC1CCCN1C(=O)C(NC(=O)C(Cc1c[nH]cn1)NC(=O)C(NC(=O)CNCC(=O)O)C(C)O)C(c1ccccc1)c1ccccc1 (stereo not shown) [Compound 1, reference compound]
% Purity of the Compound, Initial [%]: 96.9

Okay, next one:
Dear colleague, I am looking for the recorded % Purity of the Compound, Initial of the following compound: CCCCCCCCCCCCCCCCNC(=O)CN(CC(N)=O)C(=O)CCCCCNC(=O)C(Cc1c[nH]c2ccccc12)NC(=O)C(CCCNC(=N)N)NC(=O)C(CSC(C)=O)NC(=O)C(CCCNC(=N)N)NC(=O)CC1CCCN1C(=O)C(NC(=O)C(Cc1c[nH]cn1)NC(=O)C(NC(=O)CNCC(=O)O)C(C)O)C(c1ccccc1)c1ccccc1 (stereo not shown) [Compound 3] 97.3

----------
Experiment: In vitro stability of compounds in rat plasma (37° C.)
Type: in vitro ADME
Details: rat, plasma
measurement_label: half-life (h)
Give just the number in h; leave the unit off.

Consider the worked cases shown below.
compound: CCCCCCCCCCCCCCCCNC(=O)CN(CC(N)=O)C(=O)CCCCCNC(=O)C(Cc1c[nH]c2ccccc12)NC(=O)C(CCCNC(=N)N)NC(=O)C(CSCC)NC(=O)C(CCCNC(=N)N)NC(=O)CC1CCCN1C(=O)C(NC(=O)C(Cc1c[nH]cn1)NC(=O)C(NC(=O)CNCC(=O)O)C(C)O)C(c1ccccc1)c1ccccc1 (stereo not drawn)
reported: 1.87

compound: CCCCCCCCCCCCCCCCNC(=O)CN(CC(N)=O)C(=O)CCCCCNC(=O)C(Cc1c[nH]c2ccccc12)NC(=O)C(CCCNC(=N)N)NC(=O)C(CSC(C)=O)NC(=O)C(CCCNC(=N)N)NC(=O)CC1CCCN1C(=O)C(NC(=O)C(Cc1c[nH]cn1)NC(=O)C(NC(=O)CNCC(=O)O)C(C)O)C(c1ccccc1)c1ccccc1 (stereo not drawn)
reported: 1.22

Okay, next one:
Dear colleague, I am looking for the recorded half-life of the following compound: CCCCCCCCCCCCCCCCNC(=O)CN(CC(N)=O)C(=O)CCCCCNC(=O)C(Cc1c[nH]c2ccccc12)NC(=O)C(CCCNC(=N)N)NC(=O)C(CSSC)NC(=O)C(CCCNC(=N)N)NC(=O)CC1CCCN1C(=O)C(NC(=O)C(Cc1c[nH]cn1)NC(=O)C(NC(=O)CNCC(=O)O)C(C)O)C(c1ccccc1)c1ccccc1 (stereo not drawn) 0.667
